Biological target: Integrin alpha-V/beta-3 (Homo sapiens, UniProt P05106+P06756)
Assay: Affinity against alpha V-beta3 integrin via competitive ELISA using vitronectin as natural ligand
Assay type: protein-complex assay
pIC50: −log10 of the molar value.
readout kind: pIC50

Guide cases for pIC50, answers given:
[
  {
    "compound": "O=C(O)CC1c2ccccc2C(=O)N(CC(=O)NCCc2ccc(-c3nc4ccccc4[nH]3)cc2)c2ccccc21 (configuration not stated)",
    "pIC50": 6.42
  },
  {
    "compound": "O=C(O)CC1c2ccccc2C(=O)N(CC(=O)NCc2nc(-c3nc4ccccc4[nH]3)cs2)c2ccccc21 (configuration not stated)",
    "pIC50": 6.00
  },
  {
    "compound": "O=C(O)CC1c2ccccc2C(=O)N(CC(=O)NCc2ccc(NC(=O)OCc3ccccc3)cc2)c2ccccc21 (configuration not stated)",
    "pIC50": 5.00
  },
  {
    "compound": "O=C(O)CC1c2ccccc2C(=O)N(CC(=O)NCCCNc2ccccn2)c2ccccc21 (configuration not stated)",
    "pIC50": 6.00
  },
  {
    "compound": "O=C(O)CC1c2ccccc2C(=O)N(CC(=O)NCc2ccc(NC(=O)NCc3ccccc3)cc2)c2ccccc21 (configuration not stated)",
    "pIC50": 7.64
  }
]

[a] O=C(O)CC1c2ccccc2C(=O)N(CC(=O)NCc2cc(CNc3ccccn3)cs2)c2ccccc21 (configuration not stated)
[b] O=C(O)CC1c2ccccc2C(=O)N(CC(=O)NCc2cc(-c3nc4ncccc4[nH]3)cs2)c2ccccc21 (configuration not stated)
Task item: Would you let me know which has the greater pIC50 value, a or b ? When you have decided, please share the label of that item.
Reply: a

###

Biological target: Integrin alpha-V/beta-3 (Homo sapiens, UniProt P05106+P06756)
Test: Affinity against alpha V-beta3 integrin via competitive ELISA using vitronectin as natural ligand
Type: protein-complex assay
readout kind: IC50 (nM)

Guide cases for IC50, answers given:
[
  {
    "compound": "O=C(O)CC1c2ccccc2C(=O)N(CC(=O)NCCCCCNc2nc3ccccc3[nH]2)c2ccccc21 (configuration not stated)",
    "IC50, nM": 12.9
  },
  {
    "compound": "O=C(O)CC1c2ccccc2C(=O)N(CC(=O)NC[C@H]2CC[C@H](Nc3nc4ccccc4[nH]3)CC2)c2ccccc21 (some centres not stated)",
    "IC50, nM": 1.6
  },
  {
    "compound": "O=C(O)CC1c2ccccc2C(=O)N(CC(=O)NCc2ccc(-c3nc4ccccc4[nH]3)cc2)c2ccccc21 (configuration not stated)",
    "IC50, nM": 74
  },
  {
    "compound": "O=C(O)CC1c2ccccc2C(=O)N(CC(=O)NCc2nc3ccccc3[nH]2)c2ccccc21 (configuration not stated)",
    "IC50, nM": 1000
  },
  {
    "compound": "O=C(O)CC1c2ccccc2C(=O)N(CC(=O)NCCCCNc2nc3ccccc3[nH]2)c2ccccc21 (configuration not stated)",
    "IC50, nM": 14.9
  }
]

[1] N=C(N)c1csc(CNC(=O)CN2C(=O)c3ccccc3C(CC(=O)O)c3ccccc32)c1 (configuration not stated)
[2] O=C(O)CC1c2ccccc2C(=O)N(CC(=O)NCc2ccc(-c3nc4ccccc4[nH]3)nc2)c2ccccc21 (configuration not stated)
Task item: Dear colleague, could you let me know whether 1 or 2 has the lower recorded IC50? Thanks. When you have decided, please share the label of that item.
Reply: 2
